# test_target: T1, human CD112R antigen protein huCD112R-His (Acro Biosysterm, PVG-H52H4) (human, UniProt Q6DKI7 41-171)
# T1 construct: purchased; also called human antigen protein; not shown: His tag
# T1 sequence (looked up): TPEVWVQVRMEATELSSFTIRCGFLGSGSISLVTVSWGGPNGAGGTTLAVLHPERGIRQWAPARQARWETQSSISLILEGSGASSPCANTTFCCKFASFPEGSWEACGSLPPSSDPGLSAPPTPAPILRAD
# assay_comment: ELISA, huCD112R-His coated on plate
pEC50: −log10 of the molar value.

binder: C120 (antibody, human IgG1, kappa, V domains shown) VH: EVQLQQSGPEVVKPGASVKISCKASGNTLTDYFINWVKQSHGKNLEWIGDINPDNGAGNYNQKFKGKATLTVDKSSGTAFMGLRSLTSEDSAVYYCATLYFDYWGQGTTLTVSS VL: DIVMTQSPSSLSVSTGEKVTMSCRSSQSLLNSGNQKNYLAWYQQKPGQPPKLLIYGASTRESGVPDRFTGSGSGTDFTLTISSVQAEDLAIYYCQNAHTSPYTFGGGTRLEIKR
pEC50: 10.46

binder: C64 (antibody, human IgG1, kappa, V domains shown) VH: EVMLVESGGDLVKPGGSLKLSCAASGFTFSSYFMSWVRQTPEKRLEWVATISGGGDKTYYLDILKGRFTISRDNAKNTLYLQMSSLRSEDTALYYCARHEDYAWYAMDYWGQGTSVTVSS VL: QIVLTQSPAIMSASPGEKVTMTCSASSSVNYIYWYQQKPGSSPRLLIYDTSNLASGVPVRFSGSGSGTSYSLTISRMEAEDAATYYCQQWSSYPLTFGAGTKLELKR
pEC50: 10.47

binder: C8 (antibody, human IgG1, kappa, V domains shown) VH: EVQLVASGGGLVKPGGSLKLSCAASGFTFSDYYMFWVRQTPEKRLEWVATISDGGGYIYYPDSVKGRFTISRDNDRNSLYLQMSSLKSEDTAIYYCGREDFWGQGTSVTVSS VL: DIQMTQSPSSLSASLGERVSLTCRASQDIGRSLNWLQQEPDGSVRRLIYATSRLDSGVPKRFSGSRSGSDYSLTISSLESEDFVDYYCLQYASFPYTFGGGTKLEIKR
pEC50: 10.34

The values you see were collected from patent EP4644419A1.
